The reported measurements were obtained from patent US20150015931A1.

experimental.details: Solubility testing: saturation concentration of dye in non-polar solvent
measurement.setup: Decane as solvent
Overview of reported Dye saturation concentration % in Decane as solvent across a group of compounds:
reported.endpoint: Dye saturation concentration % in Decane as solvent (%)

- compound: "Cc1ccc(C)c(N=Nc2cc(C)c(N=Nc3c(O)ccc4ccccc34)cc2C)c1 [Oil Red O, reference compound]"
  reported.result: 1.17
- compound: "CCCCCCCCCCCCCCCCCCN(CCCCCCCCCCCCCCCCCC)c1cc(NC(C)=O)c(/N=N/c2c(C#N)cc([N+](=O)[O-])cc2C#N)cc1OC"
  reported.result: 0.003
- compound: "CCCCNc1ccc(NCCCC)c2c1C(=O)c1ccccc1C2=O [Solvent Blue 35, reference compound]"
  reported.result: 0.33
- compound: "CCCCCNc1ccc(NCCCCC)c2c1C(=O)c1ccccc1C2=O [Oil Blue N, reference compound]"
  reported.result: 0.62
- compound: "CCCCCCCCN(CCCCCCCC)c1ccc(/N=N/c2snc(C)c2C#N)c(NC(C)=O)c1"
  reported.result: 0.19
